Measured values drawn from paper PMC8621770 for this set.

Tested on: P. falciparum strain 3D7
test: Antimalarial activity, P. falciparum lactate dehydrogenase growth inhibition assay
Format: cell-based, Plasmodium falciparum
conditionDetails: Plasmodium falciparum, 3D7, Erythrocyte; infected erythrocytes, P. falciparum; read-out: antimalarial activity (IC50), as given in the text
pIC50: −log10 of the molar value.
Item-by-item account of pIC50
measurementType: pIC50

1) [Br-].[Br-].c1cc2c(N3CCCC3)nc[n+](Cc3ccc(OCCOc4ccc(C[n+]5cnc(N6CCCC6)c6ccsc65)cc4)cc3)c2s1 : ~7.96
2) [Br-].[Br-].c1cc2c(N3CCCC3)nc[n+](Cc3ccc(CCc4ccc(C[n+]5cnc(N6CCCC6)c6ccsc65)cc4)cc3)c2s1 : ~7.96

---

Recorded melting point, one value per entry.
Structures can show the parent of a compound that is named as a salt.
measurementType: melting point

1. [Br-].[Br-].c1cc2c(N3CCCC3)nc[n+](Cc3ccc(CCCCc4ccc(C[n+]5cnc(N6CCCC6)c6ccsc65)cc4)cc3)c2s1 : 288 to 290 °C
2. [Br-].[Br-].c1cc2c(s1)c(N1CCCCCC1)nc[n+]2Cc1ccc(-c2ccc(C[n+]3cnc(N4CCCCCC4)c4sccc43)cn2)nc1 : 310 to 312 °C
3. [Br-].[Br-].c1cc2c(N3CCCCC3)nc[n+](Cc3ccc(OCCOc4ccc(C[n+]5cnc(N6CCCCC6)c6ccsc65)cc4)cc3)c2s1 : > 280 °C
4. [Br-].[Br-].c1cc2c(N3CCCC3)nc[n+](Cc3ccc(CCc4ccc(C[n+]5cnc(N6CCCC6)c6ccsc65)cc4)cc3)c2s1 : 293 to 295 °C
5. [Br-].[Br-].c1cc2c(s1)c(N1CCCCC1)nc[n+]2Cc1ccc(CCc2ccc(C[n+]3cnc(N4CCCCC4)c4sccc43)cc2)cc1 : 314 to 316 °C
6. [Br-].[Br-].c1cc2c(s1)c(N1CCCCCC1)nc[n+]2Cc1ccc(CCCCc2ccc(C[n+]3cnc(N4CCCCCC4)c4sccc43)cc2)cc1 : 268 to 270 °C
7. [Br-].[Br-].c1cc2c(N3CCCCC3)nc[n+](Cc3ccc(-c4ccc(C[n+]5cnc(N6CCCCC6)c6ccsc65)cn4)nc3)c2s1 : 267 to 269 °C
8. [Br-].[Br-].c1cc2c(N3CCCCCC3)nc[n+](Cc3ccc(-c4ccc(C[n+]5cnc(N6CCCCCC6)c6ccsc65)cn4)nc3)c2s1 : 289 to 291 °C
9. [Br-].[Br-].c1cc2c(s1)c(N1CCCCC1)nc[n+]2Cc1ccc(-c2ccc(C[n+]3cnc(N4CCCCC4)c4sccc43)cn2)nc1 : 307 to 309 °C
10. [Br-].[Br-].c1cc2c(N3CCCCCC3)nc[n+](Cc3ccc(CCCCc4ccc(C[n+]5cnc(N6CCCCCC6)c6ccsc65)cc4)cc3)c2s1 : 117 to 119 °C
11. [Br-].c1ccc(-c2ccc(C[n+]3cnc(N4CCCC4)c4sccc43)cc2)cc1 : 295 to 298 °C
12. [Br-].[Br-].c1cc2c(s1)c(N1CCCCCC1)nc[n+]2Cc1ccc(CCc2ccc(C[n+]3cnc(N4CCCCCC4)c4sccc43)cc2)cc1 : 321 to 323 °C
13. [Br-].[Br-].c1cc2c(s1)c(N1CCCC1)nc[n+]2Cc1ccc(CCCCc2ccc(C[n+]3cnc(N4CCCC4)c4sccc43)cc2)cc1 : 215 to 217 °C
14. [Br-].[Br-].c1cc2c(N3CCCC3)nc[n+](Cc3ccc(-c4ccc(C[n+]5cnc(N6CCCC6)c6ccsc65)cc4)cc3)c2s1 : 300 to 302 °C
15. c1cc2c(s1)c(N1CCCCCC1)cc[n+]2Cc1ccc(-c2ccc(C[n+]3ccc(N4CCCCCC4)c4sccc43)cc2)cc1 (as salt: bromide) : 220 to 222 °C
16. [Br-].[Br-].c1cc2c(s1)c(N1CCCC1)cc[n+]2Cc1ccc(CCc2ccc(C[n+]3ccc(N4CCCC4)c4sccc43)cc2)cc1 : 253 to 255 °C
17. [Br-].[Br-].c1cc2c(s1)c(N1CCCCC1)nc[n+]2Cc1ccc(CCCCc2ccc(C[n+]3cnc(N4CCCCC4)c4sccc43)cc2)cc1 : 276 to 278 °C
18. [Br-].[Br-].c1cc2c(N3CCCC3)nc[n+](Cc3ccc(-c4ccc(C[n+]5cnc(N6CCCC6)c6ccsc65)cn4)nc3)c2s1 : 238 to 240 °C
19. [Br-].[Br-].c1cc2c(N3CCCCCC3)nc[n+](Cc3ccc(CCc4ccc(C[n+]5cnc(N6CCCCCC6)c6ccsc65)cc4)cc3)c2s1 : 298 to 300 °C
20. [Br-].[Br-].c1cc2c(s1)c(N1CCCC1)nc[n+]2Cc1ccc(-c2ccc(C[n+]3cnc(N4CCCC4)c4sccc43)cn2)nc1 : 330 to 332 °C

---

assaySystem: PfCK (Plasmodium falciparum, UniProt Q8IM71)
Construct: A truncated form of PfCK (Δ79-440) featuring an N-terminal 6× His-tag; 6xHis (N); host or cells: Escherichia coli BL21 (DE3) Star
Sequence (Q8IM71 entry or part of it): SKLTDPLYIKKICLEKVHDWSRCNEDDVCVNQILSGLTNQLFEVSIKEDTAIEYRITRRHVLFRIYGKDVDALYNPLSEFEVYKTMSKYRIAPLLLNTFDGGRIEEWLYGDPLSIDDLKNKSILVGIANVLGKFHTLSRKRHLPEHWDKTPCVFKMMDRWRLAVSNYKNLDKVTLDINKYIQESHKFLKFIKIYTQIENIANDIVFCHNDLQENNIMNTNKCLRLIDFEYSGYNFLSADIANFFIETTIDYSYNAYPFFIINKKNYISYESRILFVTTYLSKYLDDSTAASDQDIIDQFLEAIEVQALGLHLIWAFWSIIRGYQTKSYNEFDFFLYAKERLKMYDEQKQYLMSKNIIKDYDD
test: Spectrophotometric coupled enzymatic assay for PfCK activity (substrate choline)
Type: biochemical
conditionDetails: read-out: PfCK Fractional Activity at 25 µM
measurementType: remaining activity at 25 µM (%)

1. [Br-].[Br-].c1cc2c(s1)c(N1CCCC1)cc[n+]2Cc1ccc(CCc2ccc(C[n+]3ccc(N4CCCC4)c4sccc43)cc2)cc1 : 33
2. [Br-].c1ccc(-c2ccc(C[n+]3cnc(N4CCCC4)c4ccsc43)cc2)cc1 : 96.9
3. [Br-].[Br-].c1cc2c(N3CCCCC3)nc[n+](Cc3ccc(OCCOc4ccc(C[n+]5cnc(N6CCCCC6)c6ccsc65)cc4)cc3)c2s1 : 91.1
4. [Br-].[Br-].c1cc2c(s1)c(N1CCCCC1)nc[n+]2Cc1ccc(CCCCc2ccc(C[n+]3cnc(N4CCCCC4)c4sccc43)cc2)cc1 : 68.8

---

Readings of IC50 for the listed molecules
assaySystem: PfCK (Plasmodium falciparum)
Construct: A truncated form of PfCK (Δ79-440) featuring an N-terminal 6× His-tag; 6xHis (N); host or cells: Escherichia coli BL21 (DE3) Star
test: Spectrophotometric coupled enzymatic assay for PfCK activity (substrate choline)
Type: biochemical
conditionDetails: IC50 PfCK b (compound concentration required to inhibit PfCK enzyme by 50%), substrate choline 4 mM, ATP 2 mM
measurementType: IC50 (µM)

1) CN(c1ccc(Cl)cc1)c1nc[n+](Cc2ccc(-c3ccc(C[n+]4cnc(N(C)c5ccc(Cl)cc5)c5ccsc54)cc3)cc2)c2sccc12.[Br-].[Br-] : 4.17
2) [Br-].[Br-].c1cc2c(s1)c(N1CCCC1)nc[n+]2Cc1ccc(CCc2ccc(C[n+]3cnc(N4CCCC4)c4sccc43)cc2)cc1 : 26.5
3) [Br-].[Br-].c1cc2c(N3CCCC3)nc[n+](Cc3ccc(OCCOc4ccc(C[n+]5cnc(N6CCCC6)c6ccsc65)cc4)cc3)c2s1 : 37.4
4) [Br-].[Br-].c1cc2c(s1)c(N1CCCCCC1)nc[n+]2Cc1ccc(CCCCc2ccc(C[n+]3cnc(N4CCCCCC4)c4sccc43)cc2)cc1 : 4.64
5) [Br-].[Br-].c1cc2c(s1)c(N1CCCC1)cc[n+]2Cc1ccc(CCCCc2ccc(C[n+]3ccc(N4CCCC4)c4sccc43)cc2)cc1 : 10.9
6) [Br-].[Br-].c1cc2c(s1)c(N1CCCC1)cc[n+]2Cc1ccc(CCc2ccc(C[n+]3ccc(N4CCCC4)c4sccc43)cc2)cc1 : 16.5
7) CN(c1ccccc1)c1nc[n+](Cc2ccc(-c3ccc(C[n+]4cnc(N(C)c5ccccc5)c5sccc54)cc3)cc2)c2ccsc12.[Br-].[Br-] : 7.27
8) [Br-].[Br-].c1cc2c(s1)c(N1CCCC1)nc[n+]2Cc1ccc(CCCCc2ccc(C[n+]3cnc(N4CCCC4)c4sccc43)cc2)cc1 : 13.3

---

# Lookup of reported melting point keyed by entry
measurementType: melting point

1. [Br-].[Br-].c1cc2c(s1)c(N1CCCC1)nc[n+]2Cc1ccc(-c2ccc(C[n+]3cnc(N4CCCC4)c4sccc43)cc2)cc1 [Fa-21] : 312 to 315 °C
2. [Br-].[Br-].c1cc2c(s1)c(N1CCCCC1)nc[n+]2Cc1ccc(OCCOc2ccc(C[n+]3cnc(N4CCCCC4)c4sccc43)cc2)cc1 [Fa-28] : 198 to 200 °C
3. [Br-].[Br-].c1cc2c(s1)c(N1CCCC1)cc[n+]2Cc1ccc(OCCOc2ccc(C[n+]3ccc(N4CCCC4)c4sccc43)cc2)cc1 [Ff-2] : 280 to 282 °C

---

assaySystem: PfCK (Plasmodium falciparum, UniProt Q8IM71)
Construct: A truncated form of PfCK (Δ79-440) featuring an N-terminal 6× His-tag; 6xHis (N); host or cells: Escherichia coli BL21 (DE3) Star
test: Spectrophotometric coupled enzymatic assay for PfCK activity (substrate choline)
Type: biochemical
conditionDetails: read-out: PfCK Fractional Activity at 25 µM
Ranges used to classify remaining activity at 25 µM: range 1 (below 50%), range 2 (50% to below 80%), range 3 (80% or more)

1. [Br-].[Br-].c1cc2c(s1)c(N1CCCC1)cc[n+]2Cc1ccc(CCCCc2ccc(C[n+]3ccc(N4CCCC4)c4sccc43)cc2)cc1 : range 1
2. [Br-].[Br-].c1cc2c(s1)c(N1CCCC1)nc[n+]2Cc1ccc(CCCCc2ccc(C[n+]3cnc(N4CCCC4)c4sccc43)cc2)cc1 : range 2
3. c1cc2c(s1)c(N1CCCCC1)nc[n+]2Cc1ccc(-c2ccc(C[n+]3cnc(N4CCCCC4)c4sccc43)cc2)cc1 : range 2
4. CN(c1ccccc1)c1nc[n+](Cc2ccc(-c3ccc(C[n+]4cnc(N(C)c5ccccc5)c5sccc54)cc3)cc2)c2ccsc12.[Br-].[Br-] : range 1
5. [Br-].[Br-].c1cc2c(N3CCCCC3)nc[n+](Cc3ccc(CCc4ccc(C[n+]5cnc(N6CCCCC6)c6ccsc65)cc4)cc3)c2s1 : range 3
6. [Br-].c1ccc(-c2ccc(C[n+]3ccc(N4CCCC4)c4sccc43)cc2)cc1 : range 3
7. c1cc2c(s1)c(N1CCCCCC1)cc[n+]2Cc1ccc(-c2ccc(C[n+]3ccc(N4CCCCCC4)c4sccc43)cc2)cc1 : range 1
8. CN(c1ccc(Cl)cc1)c1nc[n+](Cc2ccc(-c3ccc(C[n+]4cnc(N(C)c5ccc(Cl)cc5)c5ccsc54)cc3)cc2)c2sccc12.[Br-].[Br-] : range 1
9. [Br-].[Br-].c1cc2c(N3CCCC3)nc[n+](Cc3ccc(OCCOc4ccc(C[n+]5cnc(N6CCCC6)c6ccsc65)cc4)cc3)c2s1 : range 3
10. c1cc2c(N3CCCCC3)nc[n+](Cc3ccc(-c4ccc(C[n+]5cnc(N6CCCCC6)c6ccsc65)cc4)cc3)c2s1 : range 2
11. [Br-].[Br-].c1cc2c(N3CCCCC3)nc[n+](Cc3ccc(-c4ccc(C[n+]5cnc(N6CCCCC6)c6ccsc65)cn4)nc3)c2s1 : range 3
12. [Br-].[Br-].c1cc2c(s1)c(N1CCCCCC1)nc[n+]2Cc1ccc(CCCCc2ccc(C[n+]3cnc(N4CCCCCC4)c4sccc43)cc2)cc1 : range 1
13. [Br-].[Br-].c1cc2c(N3CCCCCC3)nc[n+](Cc3ccc(-c4ccc(C[n+]5cnc(N6CCCCCC6)c6ccsc65)cn4)nc3)c2s1 : range 3
14. [Br-].[Br-].c1cc2c(N3CCCC3)nc[n+](Cc3ccc(-c4ccc(C[n+]5cnc(N6CCCC6)c6ccsc65)cn4)nc3)c2s1 : range 3
15. [Br-].[Br-].c1cc2c(s1)c(N1CCCCC1)nc[n+]2Cc1ccc(OCCOc2ccc(C[n+]3cnc(N4CCCCC4)c4sccc43)cc2)cc1 : range 3
16. [Br-].[Br-].c1cc2c(s1)c(N1CCCCC1)nc[n+]2Cc1ccc(-c2ccc(C[n+]3cnc(N4CCCCC4)c4sccc43)cn2)nc1 : range 3
17. [Br-].[Br-].c1cc2c(N3CCCC3)nc[n+](Cc3ccc(CCc4ccc(C[n+]5cnc(N6CCCC6)c6ccsc65)cc4)cc3)c2s1 : range 3
18. c1cc2c(s1)c(N1CCCCCC1)nc[n+]2Cc1ccc(OCCOc2ccc(C[n+]3cnc(N4CCCCCC4)c4sccc43)cc2)cc1 : range 2
19. [Br-].c1ccc(-c2ccc(C[n+]3cnc(N4CCCC4)c4sccc43)cc2)cc1 : range 2
20. [Br-].[Br-].c1cc2c(N3CCCCCC3)nc[n+](Cc3ccc(CCCCc4ccc(C[n+]5cnc(N6CCCCCC6)c6ccsc65)cc4)cc3)c2s1 : range 2
21. [Br-].[Br-].c1cc2c(s1)c(N1CCCC1)nc[n+]2Cc1ccc(OCCOc2ccc(C[n+]3cnc(N4CCCC4)c4sccc43)cc2)cc1 : range 2
